Examples of compounds with documented IC50 follow.
target: HLA B*0801 (Homo sapiens, UniProt P01889, A93T/A95T/D138N/E176V/E187T/K202T/Q94N/R180D/S35A/V36M/Y33D/Y91F); assay: biochemical; type: binding
Where a SMILES comes first, the peptide text is derived from it.
measured_endpoint: IC50 (nM)

>>> reported_value("CC[C@H](C)[C@H](NC(=O)[C@H](CCCNC(=N)N)NC(=O)[C@@H](N)Cc1ccc(O)cc1)C(=O)N[C@@H](C)C(=O)N[C@@H](CCCCN)C(=O)N[C@@H](Cc1ccccc1)C(=O)N[C@@H](CC(C)C)C(=O)N[C@@H](Cc1ccccc1)C(=O)N[C@@H](CCSC)C(=O)O [3102.0708] (H-YRIAKFLFM-OH)")
17
>>> reported_value("CC[C@H](C)[C@H](NC(=O)[C@H](CO)NC(=O)[C@H](Cc1ccccc1)NC(=O)[C@H](CC(C)C)NC(=O)[C@@H](NC(=O)[C@H](CCCNC(=N)N)NC(=O)[C@H](CC(C)C)NC(=O)[C@@H](N)Cc1c[nH]cn1)C(C)C)C(=O)N[C@@H](Cc1ccccc1)C(=O)O [3102.0612] (H-HLRVLFSIF-OH)")
4.7

###

target: HLA B*1503 (Homo sapiens, UniProt P01889, A329T/A93T/A95T/C349S/D201E/D98Y/E187L/E204Q/K202T/N87E/Q94N/R155S/R180L/S121R/S35A/V306I/V36M/Y140S/Y91S); assay: biochemical; format: binding
Where a SMILES comes first, the peptide text is derived from it.
measured_endpoint: IC50 (nM)

>>> reported_value("CC[C@H](C)[C@H](NC(=O)[C@H](CO)NC(=O)[C@@H](NC(=O)[C@H](CCC(N)=O)NC(=O)[C@H](CO)NC(=O)[C@H](CC(N)=O)NC(=O)[C@H](Cc1ccccc1)NC(=O)[C@H](CCCCN)NC(=O)[C@@H](N)Cc1ccccc1)C(C)C)C(=O)O [3102.1116] (H-FKFNSQVSI-OH)")
1.2
>>> reported_value("CC[C@H](C)[C@H](NC(=O)[C@H](CO)NC(=O)[C@H](CCCNC(=N)N)NC(=O)[C@H](CCCNC(=N)N)NC(=O)[C@@H](NC(=O)[C@@H](NC(=O)[C@@H](NC(=O)[C@H](CCCCN)NC(=O)[C@@H](N)Cc1ccccc1)C(C)C)[C@@H](C)O)[C@@H](C)O)C(=O)O [3102.1295] (H-FKVTTRRSI-OH)")
4.6
>>> reported_value("CC(C)C[C@H](NC(=O)[C@H](Cc1ccccc1)NC(=O)[C@H](CO)NC(=O)[C@@H](N)CC(C)C)C(=O)N[C@@H](CO)C(=O)N[C@@H](CCCNC(=N)N)C(=O)N[C@H](C(=O)N[C@@H](Cc1ccccc1)C(=O)N[C@@H](Cc1ccccc1)C(=O)O)C(C)C [3102.1115] (H-LSFLSRVFF-OH)")
0.33

###

biological target: HLA A*3001 (Homo sapiens, UniProt P04439, D140H/D185E/E176W/F33S/G80R/H175R/K168Q/R138E/R41S); experiment: biochemical; assay type: binding
pIC50: −log10 of the molar value. Where a SMILES comes first, the peptide text is derived from it.
Examples of compounds with documented pIC50 follow.
measured_endpoint: pIC50

>>> reported_value("CC[C@H](C)[C@H](NC(=O)[C@@H]1CCCN1C(=O)[C@H](C)NC(=O)[C@H](CO)NC(=O)[C@H](C)NC(=O)[C@@H]1CCCN1C(=O)[C@H](CCCCN)NC(=O)[C@@H](NC(=O)[C@@H](N)CCCNC(=N)N)[C@@H](C)O)C(=O)O [3102.0187] (H-RTKPASAPI-OH)")
9.96
>>> reported_value("CC[C@H](C)[C@H](NC(=O)[C@H](C)N)C(=O)N[C@@H](CCCNC(=N)N)C(=O)N[C@@H](C)C(=O)NCC(=O)N[C@@H](Cc1ccc(O)cc1)C(=O)N[C@@H](CO)C(=O)N[C@H](C(=O)N[C@H](C(=O)O)C(C)C)[C@@H](C)CC [3102.0160] (H-AIRAGYSIV-OH)")
8.85
>>> reported_value("CC(C)C[C@H](NC(=O)[C@H](CC(N)=O)NC(=O)[C@H](CC(C)C)NC(=O)[C@H](CCCNC(=N)N)NC(=O)[C@H](CCCNC(=N)N)NC(=O)[C@H](CO)NC(=O)[C@@H](N)CCCCN)C(=O)N[C@@H](Cc1ccccc1)C(=O)N[C@@H](CO)C(=O)O [3102.0009] (H-KSRRLNLFS-OH)")
8.48
>>> reported_value("CC[C@H](C)[C@H](NC(=O)[C@H](CO)NC(=O)[C@H](CO)NC(=O)[C@H](CO)NC(=O)[C@H](CCCCN)NC(=O)[C@H](CCCNC(=N)N)NC(=O)[C@H](CO)NC(=O)CN)C(=O)N[C@@H](CC(C)C)C(=O)O [3102.0276] (H-GSRKSSSIL-OH)")
8.80

The values you see were collected from paper PMC2248166.
